Test system: HCC-2998 colon
Test: NCI tumour cell line growth inhibition, 48 h
Reported metric: TGI

smiles_structure=Cc1nnc(-c2cccc(-c3ccc(C(=O)NCC4CC4)cc3)c2)o1 test_system="HCC-2998 colon" measured_value="> 25 µM"
smiles_structure=Cc1c(N2CCN(C)CC2)nc2ccc(Cl)cc2c1-c1ccccc1 test_system="HCC-2998 colon" measured_value="> 10 µM"
smiles_structure=COC(=O)c1cc(O)c2cc3c(cc2c1-c1cc(OC)c(OC)c(OC)c1)OCO3 test_system="HCC-2998 colon" measured_value="> 100 µM"

Continue with the next compound.
Challenge: What does the record list as TGI for CC(=O)OC(C)(C)/C(C)=C/C(=O)O[C@H]1C(=O)O[C@@H]2C[C@H]3[C@H](C)C(=O)C(O[C@@H]4O[C@H](CO)[C@@H](O)[C@H](O)[C@H]4O)=C[C@]3(C)[C@H]3[C@@H](O)[C@H](O)[C@@]4(C(=O)O)OC[C@]32[C@@H]14 ?
Response given: > 100 µM

###

Test system: UO-31 renal
Assay: NCI tumour cell line growth inhibition, 48 h
Reported metric: TGI

Look over these answered cases.
molecule="Cc1cc(Cc2cc(C)c(NC(=O)C(=O)C3CCC4=C(SC5C=CC=CC5N4)C3=O)c(C(C)C)c2)cc(C(C)C)c1NC(=O)C(=O)C1CCC2=C(SC3C=CC=CC3N2)C1=O (stereo not drawn)" reported_metric=TGI measured_value="> 100 µM"
molecule=COc1ccc(-c2cc(=O)c3cc(OC)ccc3[nH]2)cc1 reported_metric=TGI measured_value="> 100 µM"
molecule=CCOC(=O)C1(C(=O)OCC)OC(C)=NC1(C(=O)OC)C(=O)OC reported_metric=TGI measured_value="> 100 µM"
molecule="COC(=O)C(Cc1c[nH]c2ccccc12)NC(=O)c1ccc(-c2ccc(Cl)cc2Cl)o1 (stereo not drawn)" reported_metric=TGI measured_value="> 100 µM"
molecule="N#CC(Cc1ccccc1)N(CCC1=CCCCC1)Cc1ccccc1 (stereo not drawn)" reported_metric=TGI measured_value="> 100 µM"

Challenge: Name the reported TGI value associated with the molecule Cc1cc(/C=C/c2cc[n+](C)c3ccccc23)c(O)c2ncccc12
Response given: 21.3 µM

Challenge: Entry CC(Nc1ccc(S(=O)(=O)N=C(N)N)cc1)c1c2ccccc2nc2ccccc12 (stereo not drawn) please
Response given: 65.6 µM

Challenge: Likewise for O=c1ncc(F)cn1C1OC(CO)C(O)C1O (stereo not drawn) ?
Response given: > 100 µM

Challenge: And for Oc1ccc2ccccc2c1N=Nc1ccsc1 ?
Response given: > 100 µM

Challenge: Same lookup for C/C(=N\NS(=O)(=O)c1ccc(C)cc1)P(=O)(O)O , please.
Response given: > 100 µM

Challenge: Please give the result for COc1cc(NCCCN=C(N)NC(N)=NC(C)C)c2ncccc2c1 too.
Response given: > 100 µM

Challenge: Item: COC(=O)C1(C#N)C(C)(C)N=C(c2ccccc2)C12CCCCC2 (stereo not drawn)
Response given: > 100 µM

Challenge: Also, CS(=O)(=O)c1ccc(N=C/C=C/Nc2ccc(S(C)(=O)=O)cc2)cc1 please.
Response given: > 100 µM

Challenge: And COc1cc(N(C)C)c(OC)cc1/C=C\c1ccnc2ccccc12 ?
Response given: > 10 µM

Challenge: Cool, now O=C(c1ccccc1)C1OC1c1ccc([N+](=O)[O-])cc1 (stereo not drawn)
Response given: 93.2 µM

Challenge: Param item: Cn1c2c(c3ccc([N+](=O)[O-])cc3c1=O)C(=O)c1ccccc1-2
Response given: > 100 µM

Challenge: Also, CCOC(=O)c1cc2/c(=C\c3ccc(N(C)C)cc3)c3ccccc3n2[n+]1C please.
Response given: 19.3 µM

Challenge: Now give it for Nc1nc2c(ncn2C2C=CC(CO)C2)c(=O)[nH]1 (stereo not drawn) too.
Response given: > 100 µM

Challenge: COC(=O)c1cc(O)c2cc3c(cc2c1-c1cc(OC)c(OC)c(OC)c1)OCO3 , same question.
Response given: > 100 µM

###

Tested on: DLD-1 colon
Test: NCI tumour cell line growth inhibition, 48 h
Reported metric: TGI

Some solved entries appear below for comparison.
molecule=O=C(O)C1(C(=O)O)CCC1.[NH2-].[NH2-].[Pt+2] reported_metric=TGI measured_value="> 237 µM"
molecule=Cn1cnc([N+](=O)[O-])c1Sc1nccn1-c1cccc2ccccc12 reported_metric=TGI measured_value="98.5 µM"
molecule=COc1ccccc1-c1cc(=O)c2cc3c(cc2[nH]1)OCO3 reported_metric=TGI measured_value="> 100 µM"

Challenge: Dear colleague, I am looking for the recorded TGI of the following molecule: O=c1c(Br)cc2nc3ccccc3sc-2c1Br
Response given: > 100 µM

###

Test system: HOP-92 NSCLC
Experiment: NCI tumour cell line growth inhibition, 48 h; in the data active = GI50 below about 0.43 µM; inactive = the rest
Classes to choose from: active, inactive

Example cases with answers are listed next.
compound=CS(=O)(=O)CCc1cccc(C(=O)c2cnn(-c3ccc(F)cc3)c2N)c1 category=inactive
compound=COc1ccc2c(=O)cc(C(Cl)(Cl)Cl)oc2c1 category=active

Challenge: Please let me know the test result on file for CC(C)=CCC/C(C)=C/CC/C(C)=C/CSc1ccccc1C(=O)O .
Response given: inactive

Challenge: Now the compound O=C(c1ccccc1)C(CN1CCCCC1)c1ccccc1 (stereo unspecified)
Response given: inactive

Challenge: Also C#CCSc1cc(Cl)c(C)cc1S(=O)(=O)Nc1nc2ccccc2o1 , if possible.
Response given: inactive

###

Tested on: LOX IMVI melanoma
Experiment: NCI tumour cell line growth inhibition, 48 h
Let's look at some molecules and their measured TGI.

Answered examples (5):
molecule=Cc1nc2ccccc2c(/C=C/c2ccc(Cl)cc2)c1C(=O)/C=C/c1ccc(C(F)(F)F)cc1 reported_metric=TGI measured_value="0.361 µM"
molecule=COc1ccc(CCCNC(=O)c2cc(OC)c(OC)cc2CCO)cc1OC reported_metric=TGI measured_value="> 100 µM"
molecule="O=c1ncc(F)cn1C1OC(CO)C(O)C1O (stereo not given)" reported_metric=TGI measured_value="> 59.8 µM"
molecule="Cc1ccc(NC(=O)CC2Sc3ccccc3NC2=O)c(C)c1 (stereo not given)" reported_metric=TGI measured_value="> 100 µM"
molecule=O=c1ccn(COC(COCc2ccccc2)COCc2ccccc2)c(=O)[nH]1 reported_metric=TGI measured_value="> 100 µM"

Challenge: I am curious: what TGI value has been reported for COc1ccc(/C(Cl)=C(\C=N/O)c2ccc(OC)c(OC)c2)cc1OC ?
Response given: > 100 µM

Challenge: Now give it for NC(=O)Cc1nc2c(N)ncnc2n1C1OC(CO)C(O)C1O (stereo not given) too.
Response given: > 100 µM

Challenge: Item: CC(=O)C1C(c2ccc(N(C)C)cc2)c2cc3c(cc2OC1(C)O)OCO3 (stereo not given)
Response given: > 100 µM

Challenge: Same lookup for C=CCN(C(=O)OC(C)(C)C)[C@H](C)C(=O)N[C@@H](C)C(=O)OC , please.
Response given: > 100 µM

Challenge: For COC(=O)c1cc(C(=CCC[C@H]2CC[C@@]3(C)C(CCC4C3CC[C@@]3(C)C4CC[C@@H]3C(C)CCCC(C)C)C2)c2cc(Cl)c(O)c(C(=O)OC)c2)cc(Cl)c1O (stereo not given in full) then?
Response given: > 10 µM

###

Test system: SNB-19 CNS
Assay: NCI tumour cell line growth inhibition, 48 h
Measured TGI of individual entries

Check out these entries, answers already filled in.
molecule=O=C1C(=O)N(c2cccc(C(F)(F)F)c2)C(=S)N1c1ccccc1 test_system="SNB-19 CNS" measured_value="> 100 µM"
molecule=O=c1ccn(COC(COCc2ccccc2)COCc2ccccc2)c(=O)[nH]1 test_system="SNB-19 CNS" measured_value="> 100 µM"
molecule=COc1c2ccoc2c(OC)c2oc(=O)ccc12 test_system="SNB-19 CNS" measured_value="> 100 µM"
molecule="COc1cc(C2c3cc4c(cc3OC(NNS(=O)(=O)c3ccc(C)cc3)C2C)OCO4)cc(OC)c1O (centres undefined)" test_system="SNB-19 CNS" measured_value="56.4 µM"
molecule=S=C(Nc1ccc(-c2nc3ccccc3[nH]2)cc1)Nc1ccc(-c2nc3ccccc3[nH]2)cc1 test_system="SNB-19 CNS" measured_value="> 100 µM"

Next up:
Challenge: State its TGI on SNB-19 CNS: C=C1CCC2C3(C)COC(c4ccccc4)OC3CCC2(C)C1/C=C/C1=CCOC1=O (centres undefined)
Response given: > 100 µM

###

Quick reference for TGI among some molecules
System: 786-0 renal
Assay: NCI tumour cell line growth inhibition, 48 h

Example results:
molecule=CNC(=O)c1ccccc1Nc1nc(Nc2cc(OC)c(OC)c(OC)c2)ncc1Br test_system="786-0 renal" measured_value="1.85 µM"
molecule="COc1cc(NCCC2CCCCN2)c2ncccc2c1 (stereo unspecified)" test_system="786-0 renal" measured_value="> 100 µM"
molecule="O=C(O)CCC(N=Cc1nc(-c2ccccc2)oc1O)C(=O)O (stereo unspecified)" test_system="786-0 renal" measured_value="> 100 µM"
molecule=COc1c2ccoc2c(OC)c2oc(=O)ccc12 test_system="786-0 renal" measured_value="> 100 µM"
molecule=S=C1CCSc2c(ccc3ccccc23)N1 test_system="786-0 renal" measured_value="> 100 µM"

Challenge: Provide value of TGI for this record tested with 786-0 renal: NC(=O)/N=C1/CCC2C3CCCC2C13
Response given: > 100 µM

Challenge: Queued: Cc1c(N2CCN(C)CC2)nc2ccc(Cl)cc2c1-c1ccccc1
Response given: 27.9 µM

Challenge: Next molecule: CCC(=C/[C@H](C)C/C=C/C(C)=C/[C@@H](C)C(=O)[C@@H](C)[C@H](O)[C@@H](C)CC)/C=C/[C@@H]1OC(=O)C=C[C@H]1C
Response given: < 0.01 µM

Challenge: And for CC(C)=CC(Cc1ccccc1)S(=O)(=O)c1nc2ccccc2s1 (stereo unspecified) ?
Response given: 33.1 µM

Challenge: Request: CC(C)O/N=C/c1cc(NC(=S)OC(C)C)ccc1Cl
Response given: > 65.6 µM

Challenge: Same again, this time with COc1cc(-c2cc(O)c(-c3ccc4ccccc4n3)c(=O)[nH]2)cc(OC)c1OC
Response given: > 69.6 µM
